Data origin, for the record: patent US20230210831A1

# Test system: Salmonella typhimurium TA1537
# ASSAY_COMMENT: Ames test (reverse mutation test), TA1537
# Format: cell-based
# ASSAY_SETUP: TA1537, +S9 mix, 6.9 µg/plate
REPORTED_PROPERTY: Number of revertant colonies

>>> measured_number("CC(C)(C)Oc1cccc(-c2cc(N)nn2-c2ccccc2)c1 [Metabolite C]")
7
>>> measured_number("CC(C)(OCc1cc(F)cc(-c2cc(N)nn2-c2ccc(F)cc2)c1)C(F)(F)F [Metabolite D]")
20
>>> measured_number("CC(C)(C)Oc1cc(F)cc(-c2cc(N)nn2C(F)(F)F)c1 [Metabolite 1]")
10
>>> measured_number("Nc1cc(-c2cc(F)cc(OC(F)(F)F)c2)n(-c2cncc(C(F)(F)F)c2)n1 [Metabolite 5]")
13
